system: EGFR on the surface of human tumour cells (A431, H292) (human, UniProt P00533 25-1210)
test_summary: cell-based or functional assay
value_kind: IC50, EGF-stimulated ERK phosphorylation, A431 cells, In Cell Western (nM)
Write the value in nM as a bare number.

In plain terms, I1-GS10-E3, non-pegylated (designed binder) VSDVPRDLEVVAATPTSLLISWSARLKVARYYRITYGETGGNSPVQEFTVPKNVYTATISGLKPGVDYTITVYAVTRFRDYQPISINYRTEIDKGSGSGSGSGSGSGSGSGSGSVSDVPRDLEVVAATPTSLLISWLPGKLRYQYYRITYGETGGNSPVQEFTVPHDLRTATISGLKPGVDYTITVYAVTNMMHVEYSEYPISINYRTEIDKPSQ has a documented IC50, EGF-stimulated ERK phosphorylation, A431 cells, In Cell Western of 42
